# assay comment: in vivo
# measurement context: CD1 nude, mouse, 0.5 nmol/mouse, total radioactivity, Pancreas uptake
observable: tissue uptake at 4 h (%ID/g)
Give bare numbers, in %ID/g.

Field: example entries. Status: answers known.
Cc1ccc(CCCC(=O)NCCOCCOCCOCCOCCC(=O)NCCCC[C@H](NC(=O)CN2CCN(CC(=O)O)CCN(CC(=O)O)CCN(CC(=O)O)CC2)C(=O)N[C@@H](CC(=O)O)C(=O)N[C@@H](CC2CCCCC2)C(=O)N[C@@H](Cc2ccccc2)C(=O)N[C@H](CO)C(=O)N[C@H](CCCNC(=N)N)C(=O)N[C@@H](Cc2ccc(O)cc2)C(=O)N[C@@H](CC(C)C)C(=O)N[C@@H](Cc2c[nH]c3ccccc23)C(=O)N[C@@H](CO)C(N)=O)cc1 [[^177Lu]Lu-uPAR-11, metal not drawn] ... 0.69
Cc1ccc(CCCC(=O)NCCOCCOCCOCCOCCC(=O)NC[C@H](NC(=O)CN2CCN(CC(=O)O)CCN(CC(=O)O)CCN(CC(=O)O)CC2)C(=O)N[C@@H](CC(=O)O)C(=O)N[C@@H](CC2CCCCC2)C(=O)N[C@@H](Cc2ccccc2)C(=O)N[C@H](CO)C(=O)N[C@H](CCCNC(=N)N)C(=O)N[C@@H](Cc2ccc(O)cc2)C(=O)N[C@@H](CC(C)C)C(=O)N[C@@H](Cc2c[nH]c3ccccc23)C(=O)N[C@@H](CO)C(N)=O)cc1 [[^177Lu]Lu-uPAR-14, metal not drawn] ... 0.68
Cc1ccc(CCCC(=O)NCCCCCCCC(=O)NCCCC[C@H](NC(=O)CN2CCN(CC(=O)O)CCN(CC(=O)O)CCN(CC(=O)O)CC2)C(=O)N[C@@H](CC(=O)O)C(=O)N[C@@H](CC2CCCCC2)C(=O)N[C@@H](Cc2ccccc2)C(=O)N[C@H](CO)C(=O)N[C@H](CCCNC(=N)N)C(=O)N[C@@H](Cc2ccc(O)cc2)C(=O)N[C@@H](CC(C)C)C(=O)N[C@@H](Cc2c[nH]c3ccccc23)C(=O)N[C@@H](CO)C(N)=O)cc1 [[^177Lu]Lu-uPAR-12, metal not drawn] ... 1.4

In the following, a different compound is considered.
// query What tissue uptake at 4 h value was documented for this compound, Cc1ccc(CCCC(=O)NCCOCCOCCOCCOCCC(=O)NCCCC[C@H](NC(=O)CC[C@H](C(=O)O)N2CCN(CC(=O)O)CCN(CC(=O)O)CCN(CC(=O)O)CC2)C(=O)N[C@@H](CC(=O)O)C(=O)N[C@@H](CC2CCCCC2)C(=O)N[C@@H](Cc2ccccc2)C(=O)N[C@H](CO)C(=O)N[C@H](CCCNC(=N)N)C(=O)N[C@@H](Cc2ccc(O)cc2)C(=O)N[C@@H](CC(C)C)C(=O)N[C@@H](Cc2c[nH]c3ccccc23)C(=O)N[C@@H](CO)C(N)=O)cc1 [[^177Lu]Lu-uPAR-17, metal not drawn] ?
// result 0.82

---

# assay comment: in vivo
# measurement context: CD1 nude, mouse, 0.5 nmol/mouse, total radioactivity, Blood uptake
observable: tissue uptake at 24 h

Field: example entries. Status: answers known.
Cc1ccc(CCCC(=O)NCCOCCOCCOCCOCCOCCC(=O)NCCCC[C@H](NC(=O)CN2CCN(CC(=O)O)CCN(CC(=O)O)CCN(CC(=O)O)CC2)C(=O)N[C@@H](CC(=O)O)C(=O)N[C@@H](CC2CCCCC2)C(=O)N[C@@H](Cc2ccccc2)C(=O)N[C@H](CO)C(=O)N[C@H](CCCNC(=N)N)C(=O)N[C@@H](Cc2ccc(O)cc2)C(=O)N[C@@H](CC(C)C)C(=O)N[C@@H](Cc2c[nH]c3ccccc23)C(=O)N[C@@H](CO)C(N)=O)cc1 [[^177Lu]Lu-uPAR-18, metal not drawn] ... 0.05 %ID/g
Cc1ccc(CCCC(=O)NCCOCCOCCOCCOCCC(=O)NC[C@H](NC(=O)CN2CCN(CC(=O)O)CCN(CC(=O)O)CCN(CC(=O)O)CC2)C(=O)N[C@@H](CC(=O)O)C(=O)N[C@@H](CC2CCCCC2)C(=O)N[C@@H](Cc2ccccc2)C(=O)N[C@H](CO)C(=O)N[C@H](CCCNC(=N)N)C(=O)N[C@@H](Cc2ccc(O)cc2)C(=O)N[C@@H](CC(C)C)C(=O)N[C@@H](Cc2c[nH]c3ccccc23)C(=O)N[C@@H](CO)C(N)=O)cc1 [[^177Lu]Lu-uPAR-14, metal not drawn] ... 0.06 %ID/g
Cc1ccc(CCCC(=O)NCCOCCOCCOCCOCCC(=O)NCCCC[C@H](NC(=O)CN2CCN(CC(=O)O)CCN(CC(=O)O)CCN(CC(=O)O)CC2)C(=O)N[C@@H](CC(=O)O)C(=O)N[C@@H](CC2CCCCC2)C(=O)N[C@@H](Cc2ccccc2)C(=O)N[C@H](CO)C(=O)N[C@H](CCCNC(=N)N)C(=O)N[C@@H](Cc2ccc(O)cc2)C(=O)N[C@@H](CC(C)C)C(=O)N[C@@H](Cc2c[nH]c3ccccc23)C(=O)N[C@@H](CO)C(N)=O)cc1 [[^177Lu]Lu-uPAR-11, metal not drawn] ... < 0.03 %ID/g
Cc1ccc(CCCC(=O)NCCCCCCCC(=O)NCCCC[C@H](NC(=O)CN2CCN(CC(=O)O)CCN(CC(=O)O)CCN(CC(=O)O)CC2)C(=O)N[C@@H](CC(=O)O)C(=O)N[C@@H](CC2CCCCC2)C(=O)N[C@@H](Cc2ccccc2)C(=O)N[C@H](CO)C(=O)N[C@H](CCCNC(=N)N)C(=O)N[C@@H](Cc2ccc(O)cc2)C(=O)N[C@@H](CC(C)C)C(=O)N[C@@H](Cc2c[nH]c3ccccc23)C(=O)N[C@@H](CO)C(N)=O)cc1 [[^177Lu]Lu-uPAR-12, metal not drawn] ... 3.4 %ID/g

Report tissue uptake at 24 h for every entry below.
1. Cc1ccc(CCCC(=O)NCCOCCOCCOCCC(=O)NCCCC[C@H](NC(=O)CN2CCN(CC(=O)O)CCN(CC(=O)O)CCN(CC(=O)O)CC2)C(=O)N[C@@H](CC(=O)O)C(=O)N[C@@H](CC2CCCCC2)C(=O)N[C@@H](Cc2ccccc2)C(=O)N[C@H](CO)C(=O)N[C@H](CCCNC(=N)N)C(=O)N[C@@H](Cc2ccc(O)cc2)C(=O)N[C@@H](CC(C)C)C(=O)N[C@@H](Cc2c[nH]c3ccccc23)C(=O)N[C@@H](CO)C(N)=O)cc1 [[^177Lu]Lu-uPAR-15, metal not drawn]
2. Cc1ccc(CCCC(=O)NCCOCCOCCOCCOCCC(=O)NCCCC[C@H](NC(=O)CC[C@H](C(=O)O)N2CCN(CC(=O)O)CCN(CC(=O)O)CCN(CC(=O)O)CC2)C(=O)N[C@@H](CC(=O)O)C(=O)N[C@@H](CC2CCCCC2)C(=O)N[C@@H](Cc2ccccc2)C(=O)N[C@H](CO)C(=O)N[C@H](CCCNC(=N)N)C(=O)N[C@@H](Cc2ccc(O)cc2)C(=O)N[C@@H](CC(C)C)C(=O)N[C@@H](Cc2c[nH]c3ccccc23)C(=O)N[C@@H](CO)C(N)=O)cc1 [[^177Lu]Lu-uPAR-17, metal not drawn]

// result
1: 0.04 %ID/g; 2: < 0.03 %ID/g
